Every entry's value here was drawn from PubChem BioAssay AID1304.

study.system: Neuropeptide Y receptor type 1 (Homo sapiens) (UniProt P25929)
Sequence (P25929 whole entry, looked up): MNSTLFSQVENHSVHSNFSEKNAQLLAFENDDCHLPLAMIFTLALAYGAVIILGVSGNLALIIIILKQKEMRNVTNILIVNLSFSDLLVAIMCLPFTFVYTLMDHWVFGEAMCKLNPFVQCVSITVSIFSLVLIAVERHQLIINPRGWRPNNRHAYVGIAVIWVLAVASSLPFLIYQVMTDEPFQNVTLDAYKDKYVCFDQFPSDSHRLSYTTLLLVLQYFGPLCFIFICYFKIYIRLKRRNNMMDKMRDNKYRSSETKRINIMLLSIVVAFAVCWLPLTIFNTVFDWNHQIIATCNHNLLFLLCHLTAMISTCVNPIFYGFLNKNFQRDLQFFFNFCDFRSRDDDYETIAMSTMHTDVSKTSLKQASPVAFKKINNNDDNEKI
test.method.notes: NPY-Y1 receptor potentiators or agonists, primary screen, cell-based (AID 1304);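 note: cells stimulated with NPY at EC10 then isoproterenol at EC100; 0% = low agonist plus stimulus and 100% = saturating agonist plus stimulus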
study.conditions: NPY-Y1 expressing cells, potentiator/agonist activation; at 3.6 µM; active compounds read high
In all, about 220,000 compounds went through this assay and about 800 (0.36%) were called active. The list comes from a sample in which actives are over-represented; it also holds close analogues and randomly drawn compounds.
measured.attribute: activation (%)
Could you give me the number in %? Just the number is fine.

[
  {
    "molecule": "Cc1cc(Cl)ccc1NC(=S)NCCCN1CCCC1=O",
    "measured.attribute": "activation",
    "uom": "%",
    "reported.result": 3.39
  }
]

QUERY: Find the measured activation of CCCOCC(O)CC(CC)C(=O)NNC(=S)Nc1ccccc1 (stereo not drawn) and report it.
RESULT: -8.03

QUERY: Provide one value: measured activation of Cn1nc(C(F)(F)F)cc1C(=O)O
RESULT: -6.07

----------
study.system: Neuropeptide Y receptor type 1 (Homo sapiens) (UniProt P25929)
test.method.notes: NPY-Y1 receptor potentiators or agonists, primary screen, cell-based (AID 1304);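 note: cells stimulated with NPY at EC10 then isoproterenol at EC100; 0% = low agonist plus stimulus and 100% = saturating agonist plus stimulus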
study.conditions: NPY-Y1 expressing cells, potentiator/agonist activation; at 3.6 µM; active compounds read high
Screen size: about 220,000 compounds; about 800 (0.36%) were called active. The full list was thinned out, with actives kept by preference.
measured.attribute: activation (%)
Lab book: enter the figure in %, no units written.

Examples from the recorded data:
[
  {
    "compound": "Cc1ccc(NC(=O)/C(=C/c2ccc([N+](=O)[O-])cc2)NC(=O)c2ccccc2)cc1",
    "reported.result": 30.3
  },
  {
    "compound": "O=C(Nc1ccccc1)C1CC(=O)n2c(nc3ccccc32)N1 (configuration not stated)",
    "reported.result": 16.2
  },
  {
    "compound": "COc1cccc(CNC(=O)CCC2CCCN(Cc3ccc(OC(F)F)cc3)C2)c1 (configuration not stated)",
    "reported.result": 4.57
  }
]

QUERY: Indicate the recorded activation value for this compound: CC(C)(C)NC(=O)Cn1c(SCC(=O)Nc2nccs2)nc2ccccc21
RESULT: -9.44

QUERY: Recall and state the measured activation for COCCCNC(NC(=O)c1ccc(OC)cc1)C(Cl)(Cl)Cl (configuration not stated) .
RESULT: 15.6

QUERY: Find the measured activation of O=C(NC1CCN(Cc2ccccc2)CC1)c1ccc(Oc2cc(Cl)cc(Cl)c2)o1 and report it.
RESULT: 2.83

QUERY: Please report activation for the following compound: O=C(NCCc1csc(-c2ccccc2)n1)c1ccccc1F
RESULT: -10.8

QUERY: Entry COc1ccc(C(=O)Nc2ccc(-n3nncc3C(C)(C)C)cc2)cc1 needs its activation filled in; supply it.
RESULT: 1.57

QUERY: Look up activation of CCOC(=O)/C(N=Nc1cc(C(=O)O)cc(C(=O)O)c1)=C(\O)CCl and report it.
RESULT: -8

----------
study.system: Neuropeptide Y receptor type 1 (Homo sapiens) (UniProt P25929)
test.method.notes: NPY-Y1 receptor potentiators or agonists, primary screen, cell-based (AID 1304);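 note: cells stimulated with NPY at EC10 then isoproterenol at EC100; 0% = low agonist plus stimulus and 100% = saturating agonist plus stimulus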
study.conditions: NPY-Y1 expressing cells, potentiator/agonist activation; at 3.6 µM; active compounds read high
Screen size: about 220,000 compounds; about 800 (0.36%) were called active. Shown is part of a subset that was picked to be rich in actives.
# key: entry, value: activation
Report the value in % with no unit label.

[
  {
    "molecule": "CC(NS(=O)(=O)c1ccccc1)c1n[nH]c(=S)n1-c1ccccc1 (stereo not drawn)",
    "activation (%)": 30
  }
]

QUERY: Consider the molecule Cc1ccc(NC(=O)CCOc2ccccc2)cc1S(=O)(=O)Nc1ccccc1Cl and give its recorded activation.
RESULT: 21.9

QUERY: Tell me measured activation for COc1cccc2cc(S(=O)(=O)c3ccc(C)cc3)/c(=N/NS(=O)(=O)c3ccc(C)cc3)oc12 please.
RESULT: 2.71

----------
Measured activation, listed per entry.
study.system: Neuropeptide Y receptor type 1 (Homo sapiens) (UniProt P25929)
test.method.notes: NPY-Y1 receptor potentiators or agonists, primary screen, cell-based (AID 1304);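 note: cells stimulated with NPY at EC10 then isoproterenol at EC100; 0% = low agonist plus stimulus and 100% = saturating agonist plus stimulus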
study.conditions: NPY-Y1 expressing cells, potentiator/agonist activation; at 3.6 µM; active compounds read high
Out of some 220,000 compounds screened, about 800 (0.36%) were called active. This excerpt belongs to a sample that is enriched for actives.
Please state the figure in %; there is no need to write the unit.

See these solved cases before continuing.
[
  {
    "smi": "CN(c1ccccc1)S(=O)(=O)c1cccc(NC(=O)Cc2c(F)cccc2Cl)c1",
    "study.system": "Neuropeptide Y receptor type 1 (Homo sapiens) (UniProt P25929)",
    "activation / %": -12
  },
  {
    "smi": "CC(C)NC(=O)c1ccc(Sc2ccccc2)c([N+](=O)[O-])c1",
    "study.system": "Neuropeptide Y receptor type 1 (Homo sapiens) (UniProt P25929)",
    "activation / %": 4.46
  },
  {
    "smi": "COc1ccc(NC(=O)c2nc(-n3nc(C)cc3C)ccc2Cl)cc1Cl",
    "study.system": "Neuropeptide Y receptor type 1 (Homo sapiens) (UniProt P25929)",
    "activation / %": 9.04
  },
  {
    "smi": "O=C1c2cccc3cccc(c23)N1CN1CCN(c2ccccn2)CC1",
    "study.system": "Neuropeptide Y receptor type 1 (Homo sapiens) (UniProt P25929)",
    "activation / %": 11.2
  }
]

Please find the next compound below.
QUERY: Lab note: record activation of CCN(CC)CC(=O)c1c[nH]c2ccc(OC)cc12 tested on Neuropeptide Y receptor type 1 (Homo sapiens) (UniProt P25929).
RESULT: -5.01
